- Test system: anesthetized dogs (QTc-interval of ECG)
- assay: Effects of QTc-interval of ECG in anesthetized dogs
- Assay type: in vivo, Mongrel dogs
- conditions: Canis lupus familiaris, iv; 0.3 mg/kg, forearm vein, enflurane anesthesia; read-out: prolongation of QTc-interval
Where a name gives a salt, the structure may show the parent alone.
assayEndpoint: change in vivo at 0.3 mg/kg (%)
Just the number please, in %, no unit attached.

Please review the following examples before continuing.
CCN1CCC(C(=O)c2ccc(NS(C)(=O)=O)cc2)CC1 [Compound P, hydrochloride]    14
CS(=O)(=O)Nc1ccc(C(=O)C2CCN(Cc3ccncc3)CC2)cc1.Cl.Cl [Compound G, dihydrochloride]    27
CS(=O)(=O)Nc1ccc(C(=O)C2CCN(Cc3cnc4ccccc4c3)CC2)cc1.Cl.Cl [Compound M, dihydrochloride]    13
CS(=O)(=O)Nc1ccc(C(=O)C2CCN(CCc3ccncc3)CC2)cc1.Cl.Cl [Compound J, dihydrochloride]    42

Turning now to a further record.
Ask: Form field - read-out: change in vivo at 0.3 mg/kg; system: anesthetized dogs (QTc-interval of ECG); submitted item: CS(=O)(=O)Nc1ccc(C(=O)C2CCN(Cc3ccc4ccccc4n3)CC2)cc1.Cl.Cl [Compound L, dihydrochloride]
Result: 56

---

Listing of entries alongside the reported LD50 at 0.5 h.
- assay: in vivo
- conditions: mouse, iv
Where a name gives a salt, the structure may show the parent alone.
Just the number please, in mg/kg, no unit attached.

Please review the following examples before continuing.
CS(=O)(=O)Nc1ccc(C(=O)C2CCN(CC(=O)c3cnc4ccccn34)CC2)cc1.Cl.Cl [Compound N]    224
CS(=O)(=O)Nc1ccc(C(=O)C2CCN(Cc3cn4ccccc4n3)CC2)cc1 [Compound O, dihydrochloride]    302
CS(=O)(=O)Nc1ccc(C(=O)C2CCN(CCc3ccccc3)CC2)cc1.Cl [Compound B]    100
CS(=O)(=O)Nc1ccc(C(=O)C2CCN(CCCc3ccncc3)CC2)cc1.Cl.Cl [Compound R]    138
CS(=O)(=O)Nc1ccc(C(=O)C2CCN(Cc3ccncc3)CC2)cc1.Cl.Cl [Compound G]    108

Ask: Dear colleague, I am looking for the recorded LD50 at 0.5 h of the following compound: CS(=O)(=O)Nc1ccc(C(=O)C2CCN(CCc3cccs3)CC2)cc1.CS(=O)(=O)O [Compound F]
Result: 112

---

Listing of entries alongside the reported LD50 at 0.5 h.
- assay: in vivo
- conditions: mouse, iv
The number alone won't do; follow it with the unit.

CS(=O)(=O)Nc1ccc(C(=O)C2CCN(CCc3ccncc3)CC2)cc1.Cl.Cl    195 mg/kg

Ask: Dear colleague, I am looking for the recorded LD50 at 0.5 h of the following compound: CC(C)NCC(O)c1ccc(NS(C)(=O)=O)cc1 (stereo not shown) [Sotalol, reference compound]
Result: 113 mg/kg

Ask: Dear colleague, I am looking for the recorded LD50 at 0.5 h of the following compound: CS(=O)(=O)Nc1ccc(C(=O)C2CCN(Cc3cnc4ccccc4c3)CC2)cc1.Cl.Cl
Result: 112 mg/kg

Ask: Dear colleague, I am looking for the recorded LD50 at 0.5 h of the following compound: CS(=O)(=O)Nc1ccc(C(=O)C2CCN(Cc3ccc4ccccc4n3)CC2)cc1.Cl.Cl
Result: 112 mg/kg
